- Test summary: Half-life period was determined at 20 degree Celsius at UV lambdamax nm of 268 (16000)
- Assay type: ADME
Measurement type: half-life (h)
A number alone suffices; assume h.

Q: Please supply the value of reported half-life for the item N#[N+]c1ccc(S(=O)(=O)[O-])cc1
Result: 6

###

- Test summary: Half-life period was determined at 20 degree Centigrade at UV lambdamax nm of 313 (12000)
- Assay type: ADME
Measurement type: half-life (min)
A number alone suffices; assume min.

Q: Please supply the value of reported half-life for the item N#[N+]c1nccn1CC(=O)[O-]
Result: 22

###

- Test summary: Half-life period was determined at 20 degree Celsius at UV lambdamax nm of 310 (16600)
- Format: ADME
Measurement type: half-life (h)
A number alone suffices; assume h.

Q: Please supply the value of reported half-life for the item N#[N+]c1nccn1CC(=O)[O-]
Result: 12

###

- Test summary: Half-life period was determined at 20 degree Celsius at UV lambdamax nm of 254 (15000), 341 (7800)
- Assay type: ADME
Measurement type: half-life
Number first, unit second.

Q: Please supply the value of reported half-life for the item N#[N+]c1cccc2cccc(S(=O)(=O)[O-])c12
Result: 22 h

###

This listing pairs compounds with measured inhibition.
- System tested: GABA-A receptor; anion channel (Rattus norvegicus) (UniProt O09028+P15431+P18506+P18508+P19969+P20236+P23574+P23576+P28471+P28473+P30191+P62813+P63079+P63138+Q91ZM7+Q9ES14)
- Test summary: Inhibition of [3H]GABA binding to Gamma-aminobutyric acid (GABA-A) receptor isolated from rat brain homogenates at 5*10e-4 M

Nc1nccn1CC(=O)O ... 20%
Nc1nc(CC(N)C(=O)O)c[nH]1 (stereo not drawn) ... < 50%
[N-]=[N+]=C1C=C(S(=O)(=O)O)C=CC1=O ... 15%
[N-]=[N+]=C1C=CC(=O)C=C1 ... 15%
N#[N+]c1cccc(C(=O)[O-])c1 ... 30%
[N-]=[N+]=C1C=CC(=O)C(S(=O)(=O)O)=C1 ... 15%

Q: Please supply the value of reported inhibition for the item NCc1ccc[n+]([O-])c1
Result: 20%

Q: Please supply the value of reported inhibition for the item Nc1ncc[nH]1
Result: 0%

###

This listing pairs compounds with measured IC50.
- System tested: GABA-A receptor; anion channel
- Test summary: Inhibition of [3H]GABA binding to Gamma-aminobutyric acid (GABA-A) receptor of rat brain homogenates
A number alone suffices; assume µM.

Record excerpt, results attached:
N#[N+]c1cccc2cccc(S(=O)(=O)[O-])c12 ... 10
N#[N+]C1N=CC[N-]1 (stereo not given) ... 500
N#[N+]c1cccc(S(=O)(=O)[O-])c1 ... 5

Continue with the compound presented below.
Q: Please supply the value of reported IC50 for the item N#[N+]c1nc(CC(=O)[O-])c[nH]1
Result: 70

###

- Test summary: Half-life period was determined at 20 degree Celsius at UV lambdamax nm of 313 (22000)
- Format: ADME
Measurement type: half-life (h)
A number alone suffices; assume h.

Q: Please supply the value of reported half-life for the item N#[N+]C1N=CC[N-]1 (stereo unspecified)
Result: 8

###

- Test summary: Half-life period was determined at 20 degree Celsius at UV lambdamax nm of 319 (22000)
- Assay type: ADME
Measurement type: half-life
Number first, unit second.

Q: Please supply the value of reported half-life for the item N#[N+]c1nc(CC(=O)[O-])c[nH]1
Result: 11 h
